Tested on: HL-60
Measurement description: Cytotoxicity against human HL60 cells after 48 hrs by WST8 assay
Format: functional
Protocol conditions: HL-60, 48 h
Parameter measured: GI50

Below, each entry is followed by its recorded GI50 result.
{"Compound": "C/C=C(/C)C(=O)O[C@H]1[C@H](OC(=O)/C(C)=C\\C)[C@]2(CO)[C@H](O)[C@H](O)[C@]3(C)C(=CC[C@@H]4[C@@]5(C)CC[C@H](O[C@@H]6O[C@H](C(=O)O)[C@@H](O)[C@H](O[C@@H]7O[C@@H](CO)[C@H](O)[C@H]7O)[C@H]6O[C@@H]6O[C@H](CO)[C@H](O)[C@H](O)[C@H]6O)C(C)(C)[C@@H]5CC[C@]43C)[C@@H]2CC1(C)C", "Result": "16.9 µM"}
{"Compound": "C/C=C(/C)C(=O)O[C@H]1[C@H](OC(=O)/C(C)=C\\C)[C@]2(CO)[C@H](O)C[C@]3(C)C(=CC[C@@H]4[C@@]5(C)CC[C@H](O[C@@H]6O[C@H](C(=O)O)[C@@H](O)[C@H](O[C@@H]7O[C@@H](CO)[C@H](O)[C@H]7O)[C@H]6O[C@@H]6O[C@H](CO)[C@H](O)[C@H](O)[C@H]6O)C(C)(C)[C@@H]5CC[C@]43C)[C@@H]2CC1(C)C", "Result": "1.97 µM"}
{"Compound": "C/C=C(/C)C(=O)O[C@H]1[C@H](OC(=O)C(C)C)[C@]2(CO)[C@H](O)[C@H](O)[C@]3(C)C(=CC[C@@H]4[C@@]5(C)CC[C@H](O[C@@H]6O[C@H](C(=O)O)[C@@H](O)[C@H](O[C@@H]7O[C@@H](CO)[C@H](O)[C@H]7O)[C@H]6O[C@@H]6O[C@H](CO)[C@@H](O)[C@H](O)[C@H]6O)[C@](C)(CO)[C@@H]5CC[C@]43C)[C@@H]2CC1(C)C [AESCULIOSIDE IIIB]", "Result": "10.9 µM"}

[in] What reported GI50 corresponds to C/C=C(/C)C(=O)O[C@H]1[C@H](OC(=O)/C(C)=C\C)[C@]2(CO)[C@H](O)C[C@]3(C)C(=CC[C@@H]4[C@@]5(C)CC[C@H](O)[C@](C)(CO)[C@@H]5CC[C@]43C)[C@@H]2CC1(C)C on HL-60?
[out] 2.72 µM

[in] Follow-up entry: C/C=C(/C)C(=O)O[C@H]1[C@H](OC(C)=O)[C@]2(CO)[C@H](O)[C@H](O)[C@]3(C)C(=CC[C@@H]4[C@@]5(C)CC[C@H](O[C@@H]6O[C@H](C(=O)O)[C@@H](O)[C@H](O[C@@H]7OC[C@@H](O)[C@H](O)[C@H]7O)[C@H]6O[C@@H]6O[C@H](CO)[C@@H](O)[C@H](O)[C@H]6O)C(C)(C)[C@@H]5CC[C@]43C)[C@@H]2CC1(C)C [ERYNGIIOSIDE J]
[out] 7.36 µM

[in] Follow-up entry: C/C=C(/C)C(=O)O[C@H]1[C@H](OC(=O)C(C)CC)[C@]2(CO)[C@H](O)C[C@]3(C)C(=CC[C@@H]4[C@@]5(C)CC[C@H](O)C(C)(C)[C@@H]5CC[C@]43C)[C@@H]2CC1(C)C (stereo partly specified)
[out] 4.6 µM
